biological target: GOPC, Q9HD26; assay: holdup assay; set-up: key: below the threshold = too weak to quantify, mostly under pKd 3.1 to 4; details: plain residues with an end cap or a label only (N-terminal biotin on a linker: ttds)
reported_metric: pKd
Answer with the value's number alone.

1) VDFPPKESSL [ACVR2A, P27037]; 3.45

From here, focus on the item given below.
Could you tell me which pKd is on file for PRVKPQRSKV [PPP1R13L, Q8WUF5] ?
3.95

Reference source for all entries: paper PMC9482650
